Experiment: Microsomal stability in human liver microsomes assessed as parent compound remaining at 2 uM incubated for 15 mins by RF-MS analysis
Type: ADME, Microsome
Settings: read-out: Stability
READOUT: remaining at 0.25 h, 2 µM (%)
Provide the reading as a plain figure in %.

Report remaining at 0.25 h, 2 µM for C=C(C)[C@@H]1CC[C@]2(C(=O)O)CC[C@]3(C)[C@H](CC[C@@H]4[C@@]5(C)Cc6sc(N)nc6C(C)(C)[C@@H]5CC[C@]43C)[C@@H]12 please.
31

Report remaining at 0.25 h, 2 µM for C[C@H]1[C@H](C)CC[C@]2(C(=O)O)CC[C@]3(C)C(=CC[C@@H]4[C@@]5(C)CC(SC#N)C(=O)C(C)(C)[C@@H]5CC[C@]43C)[C@H]12 (stereo partly drawn) please.
61

Report remaining at 0.25 h, 2 µM for C[C@H]1[C@H](C)CC[C@]2(C(=O)O)CC[C@]3(C)C(=CC[C@@H]4[C@@]5(C)CC(Br)C(=O)C(C)(C)[C@@H]5CC[C@]43C)[C@H]12 (stereo partly drawn) please.
93.4

---

Test: Chemical stability of compound in PBS buffer assessed as parent compound remaining at 2 uM at pH 7.4 and 37 degC incubated for 30 mins by RF-MS analysis
Format: physicochemical
Conditions: read-out: Stability
READOUT: remaining at 0.5 h, 2 µM (%)
Provide the reading as a plain figure in %.

Report remaining at 0.5 h, 2 µM for C[C@H]1[C@H](C)CC[C@]2(C(=O)O)CC[C@]3(C)C(=CC[C@@H]4[C@@]5(C)CC(Br)C(=O)C(C)(C)[C@@H]5CC[C@]43C)[C@H]12 (some centres not stated) please.
99.2

Report remaining at 0.5 h, 2 µM for C=C(C)[C@@H]1CC[C@]2(C(=O)O)CC[C@]3(C)[C@H](CC[C@@H]4[C@@]5(C)Cc6sc(N)nc6C(C)(C)[C@@H]5CC[C@]43C)[C@@H]12 please.
91.3

Report remaining at 0.5 h, 2 µM for CC1(C)CC[C@]2(C(=O)O)CC[C@]3(C)C(=CC[C@@H]4[C@@]5(C)Cc6sc(N)nc6C(C)(C)[C@@H]5CC[C@]43C)[C@@H]2C1 please.
77

Report remaining at 0.5 h, 2 µM for C[C@H]1[C@H](C)CC[C@]2(C(=O)O)CC[C@]3(C)C(=CC[C@@H]4[C@@]5(C)CC(SC#N)C(=O)C(C)(C)[C@@H]5CC[C@]43C)[C@H]12 (some centres not stated) please.
49.3

Report remaining at 0.5 h, 2 µM for CC(C)[C@@H]1CC[C@]2(C(=O)O)CC[C@]3(C)[C@H](CC[C@@H]4[C@@]5(C)Cc6sc(N)nc6C(C)(C)[C@@H]5CC[C@]43C)[C@@H]12 please.
96.1

Report remaining at 0.5 h, 2 µM for C=C(C)[C@@H]1CC[C@]2(C(=O)O)CC[C@]3(C)[C@H](CC[C@@H]4[C@@]5(C)CC(SC#N)C(=O)C(C)(C)[C@@H]5CC[C@]43C)[C@@H]12 (some centres not stated) please.
67.5

Report remaining at 0.5 h, 2 µM for CC(C)[C@@H]1CC[C@]2(C(=O)O)CC[C@]3(C)[C@H](CC[C@@H]4[C@@]5(C)CC(SC#N)C(=O)C(C)(C)[C@@H]5CC[C@]43C)[C@@H]12 (some centres not stated) please.
99.4

---

Tested on: CCRF-CEM
Test: Induction of apoptosis in human CCRF-CEM cells assessed as necrotic cells at 5 times IC50 concentration measured after 24 hrs by AnnexinV-FITC/propidium iodide staining based flow cytometry analysis (reference value: 0.1 %)
Assay type: functional
READOUT: Activity (%)
Provide the reading as a plain figure in %.

Query for CCRF-CEM: what Activity does the record show for CC1(C)CC[C@]2(C(=O)O)CC[C@]3(C)C(=CC[C@@H]4[C@@]5(C)Cc6sc(N)nc6C(C)(C)[C@@H]5CC[C@]43C)[C@@H]2C1 ?
0.1

Query for CCRF-CEM: what Activity does the record show for C[C@H]1[C@H](C)CC[C@]2(C(=O)O)CC[C@]3(C)C(=CC[C@@H]4[C@@]5(C)CC(Br)C(=O)C(C)(C)[C@@H]5CC[C@]43C)[C@H]12 (some centres undefined) ?
0.4

Query for CCRF-CEM: what Activity does the record show for CC(C)[C@@H]1CC[C@]2(C(=O)O)CC[C@]3(C)[C@H](CC[C@@H]4[C@@]5(C)Cc6sc(N)nc6C(C)(C)[C@@H]5CC[C@]43C)[C@@H]12 ?
0.1

Query for CCRF-CEM: what Activity does the record show for C=C(C)[C@@H]1CC[C@]2(C(=O)O)CC[C@]3(C)[C@H](CC[C@@H]4[C@@]5(C)Cc6sc(N)nc6C(C)(C)[C@@H]5CC[C@]43C)[C@@H]12 ?
0.8

---

System: HCT-116
Assay: Cytotoxicity against human HCT116 cells incubated for 72 hrs by MTS assay
Type: functional, cell-based
Details: HCT-116, 72 h
READOUT: pIC50
// pIC50 is dimensionless: -log10 of concentration (M)

Query for HCT-116: what pIC50 does the record show for CC1(C)CC[C@]2(C(=O)O)CC[C@]3(C)C(=CC[C@@H]4[C@@]5(C)CCC(=O)C(C)(C)[C@@H]5CC[C@]43C)[C@@H]2C1 ?
4.35

Query for HCT-116: what pIC50 does the record show for C=C(C)[C@@H]1CC[C@]2(C(=O)O)CC[C@]3(C)[C@H](CC[C@@H]4[C@@]5(C)CC(SC#N)C(=O)C(C)(C)[C@@H]5CC[C@]43C)[C@@H]12 (stereo partly specified) ?
5.48

Query for HCT-116: what pIC50 does the record show for C[C@H]1[C@H](C)CC[C@]2(C(=O)O)CC[C@]3(C)C(=CC[C@@H]4[C@@]5(C)CC(Br)C(=O)C(C)(C)[C@@H]5CC[C@]43C)[C@H]12 (stereo partly specified) ?
4.55

Query for HCT-116: what pIC50 does the record show for C[C@H]1[C@H](C)CC[C@]2(C(=O)O)CC[C@]3(C)C(=CC[C@@H]4[C@@]5(C)CCC(=O)C(C)(C)[C@@H]5CC[C@]43C)[C@H]12 ?
4.30

Query for HCT-116: what pIC50 does the record show for CC(C)[C@@H]1CC[C@]2(C(=O)O)CC[C@]3(C)[C@H](CC[C@@H]4[C@@]5(C)CC(Br)C(=O)C(C)(C)[C@@H]5CC[C@]43C)[C@@H]12 (stereo partly specified) ?
6.00

Query for HCT-116: what pIC50 does the record show for C=C(C)[C@@H]1CC[C@]2(C(=O)O)CC[C@]3(C)[C@H](CC[C@@H]4[C@@]5(C)Cc6sc(N)nc6C(C)(C)[C@@H]5CC[C@]43C)[C@@H]12 ?
4.44

Query for HCT-116: what pIC50 does the record show for CC(C)[C@@H]1CC[C@]2(C(=O)O)CC[C@]3(C)[C@H](CC[C@@H]4[C@@]5(C)CC(SC#N)C(=O)C(C)(C)[C@@H]5CC[C@]43C)[C@@H]12 (stereo partly specified) ?
5.46

Query for HCT-116: what pIC50 does the record show for C[C@H]1[C@H](C)CC[C@]2(C(=O)O)CC[C@]3(C)C(=CC[C@@H]4[C@@]5(C)Cc6sc(N7CCOCC7)nc6C(C)(C)[C@@H]5CC[C@]43C)[C@H]12 ?
4.63

Query for HCT-116: what pIC50 does the record show for CC(C)[C@@H]1CC[C@]2(C(=O)O)CC[C@]3(C)[C@H](CC[C@@H]4[C@@]5(C)Cc6sc(N)nc6C(C)(C)[C@@H]5CC[C@]43C)[C@@H]12 ?
4.49

Query for HCT-116: what pIC50 does the record show for C=C(C)[C@@H]1CC[C@]2(C(=O)O)CC[C@]3(C)[C@H](CC[C@@H]4[C@@]5(C)CC(Br)C(=O)C(C)(C)[C@@H]5CC[C@]43C)[C@@H]12 (stereo partly specified) ?
4.51

Query for HCT-116: what pIC50 does the record show for C[C@H]1[C@H](C)CC[C@]2(C(=O)O)CC[C@]3(C)C(=CC[C@@H]4[C@@]5(C)Cc6sc(N)nc6C(C)(C)[C@@H]5CC[C@]43C)[C@H]12 ?
4.37

Query for HCT-116: what pIC50 does the record show for CC(C)[C@@H]1CC[C@]2(C(=O)O)CC[C@]3(C)[C@H](CC[C@@H]4[C@@]5(C)CCC(=O)C(C)(C)[C@@H]5CC[C@]43C)[C@@H]12 [DIHYDROBETULONIC ACID] ?
4.47

Query for HCT-116: what pIC50 does the record show for C[C@H]1[C@H](C)CC[C@]2(C(=O)O)CC[C@]3(C)C(=CC[C@@H]4[C@@]5(C)Cc6sc(N7CCCC7)nc6C(C)(C)[C@@H]5CC[C@]43C)[C@H]12 ?
4.41

Where do the numbers come from? From ChEMBL document CHEMBL4312011.
